As shown below, each of these compounds has a reported viability, T/C value.
Test system: 186277-243-T-J2-PDC complex spheroid viability;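 note: 7 day exposure to compounds; 100% = DMSO vehicle control viability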
ASSAY_REMARKS: Anticancer human tumor 186277-243-T-J2-PDC patient-derived colon adenocarcinoma cell line growth inhibition
REPORTED_CONDITIONS: second compound 3.16 µM; first compound 0.03 µM; stronger effect = lower value

Example entries and their recorded answers appear below.
1) Nc1ccccc1NC(=O)c1ccc(CNC(=O)OCc2cccnc2)cc1 + NC1CCC(NC2CC2c2ccccc2)CC1 : 113%
2) COc1cc(C2c3cc4c(cc3C(OC3OC5COC(C)OC5C(O)C3O)C3COC(=O)C23)OCO4)cc(OC)c1O (configuration not stated) + NC1CCC(NC2CC2c2ccccc2)CC1 : 111%
3) CCc1c2c(nc3ccc(O)cc13)-c1cc3c(c(=O)n1C2)COC(=O)[C@]3(O)CC + NC1CC1c1ccc(-c2cccc(O)c2)cc1 : 3.34%

Quickly give me recorded viability, T/C for CCN(c1cc(-c2ccc(CN3CCOCC3)cc2)cc(C(=O)NCc2c(C)cc(C)[nH]c2=O)c1C)C1CCOCC1 + NC1CC1c1ccc(-c2cccc(O)c2)cc1
113%

Return value of viability, T/C for input COc1cc(C2c3cc4c(cc3C(OC3OC5COC(C)OC5C(O)C3O)C3COC(=O)C23)OCO4)cc(OC)c1O (configuration not stated) + NC1CC1c1ccc(-c2cccc(O)c2)cc1 , no commentary.
137%

Entry Nc1ncn(C2CC(O)C(CO)S2)c(=O)n1 (configuration not stated) + NC1CC1c1ccc(-c2cccc(O)c2)cc1 needs its viability, T/C filled in; supply it.
137%

Indicate the recorded viability, T/C value for this compound: O=C(C=Cc1cccc(S(=O)(=O)Nc2ccccc2)c1)NO + NC1CC1c1ccc(-c2cccc(O)c2)cc1
106%

Reference source for all entries: PubChem BioAssay AID1918933
